Test: Plasma and brain protein non-binding ratio (fu)
Type: in vitro ADME, mouse
Settings: mouse plasma; read-out: fu,plasma (mouse)
measured_property: fraction unbound
Give bare numbers.

For COCc1ccc(NC(=O)c2c(C#CCN3CCOCC3)n(C3(C)CC3)c3ncnc(N)c23)cc1 the compound record lists fraction unbound as 0.074

###

Test: Rat PK after oral and IV administration
Type: in vivo
Conditions: male, Han Wistar, plasma, oral, 50 mg/kg, glucose 5%, read-out: CL/F
measured_property: CL/F (mL/min/kg)
Give bare numbers, in mL/min/kg.

For COCc1ccc(NC(=O)c2c(C#CCN3CCOCC3)n(C3(C)CC3)c3ncnc(N)c23)cc1 [HM06/TAS0953] the molecule record lists CL/F as 32

###

Experiment: Rat PK after oral and IV administration
Type: in vivo
Conditions: Han Wistar, plasma, intravenous, 3 mg/kg, glucose 5%
measured_property: Cmax (µM)
Answers are plain numbers, in µM.

For COCc1ccc(NC(=O)c2c(C#CCN3CCOCC3)n(C3(C)CC3)c3ncnc(N)c23)cc1 the compound record lists Cmax as 3.98

###

Target: FGFR1 (Homo sapiens, UniProt P11362)
Sequence (P11362 22-822): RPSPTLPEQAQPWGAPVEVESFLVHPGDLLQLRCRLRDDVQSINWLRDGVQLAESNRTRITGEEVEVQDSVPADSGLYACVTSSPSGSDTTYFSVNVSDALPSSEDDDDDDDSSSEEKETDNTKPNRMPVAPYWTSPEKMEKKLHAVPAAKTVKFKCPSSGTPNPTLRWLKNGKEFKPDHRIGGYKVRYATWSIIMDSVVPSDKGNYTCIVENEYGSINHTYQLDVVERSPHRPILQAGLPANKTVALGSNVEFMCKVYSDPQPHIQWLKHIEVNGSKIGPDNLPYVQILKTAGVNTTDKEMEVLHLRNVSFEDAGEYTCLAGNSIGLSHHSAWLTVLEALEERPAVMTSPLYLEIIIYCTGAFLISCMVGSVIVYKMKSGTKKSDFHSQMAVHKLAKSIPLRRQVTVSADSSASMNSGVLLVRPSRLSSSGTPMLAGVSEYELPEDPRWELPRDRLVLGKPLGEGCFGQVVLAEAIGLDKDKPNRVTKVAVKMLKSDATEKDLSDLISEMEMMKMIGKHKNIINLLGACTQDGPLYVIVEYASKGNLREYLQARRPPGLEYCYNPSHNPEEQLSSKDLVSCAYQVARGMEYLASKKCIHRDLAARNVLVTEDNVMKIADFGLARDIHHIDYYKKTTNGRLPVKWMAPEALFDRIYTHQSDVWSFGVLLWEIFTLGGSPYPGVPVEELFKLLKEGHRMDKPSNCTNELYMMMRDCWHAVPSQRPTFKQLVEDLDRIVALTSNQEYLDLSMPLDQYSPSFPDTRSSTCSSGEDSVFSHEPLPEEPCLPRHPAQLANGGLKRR
Assay: Kinase inhibition
Format: biochemical
Conditions: read-out: IC50 kinase inhibition, FGFR1
measured_property: pIC50
Answers are plain numbers, as −log10 of the molar value.

{"compound": "CO[C@]1(C(=O)N[C@@H](C)c2ccc(-n3cc(F)cn3)nc2)CC[C@H](c2nc(C)cc(Nc3cc(C)[nH]n3)n2)CC1 [BLU-667, pralsetinib]", "measured_property": "pIC50", "measured_number": 7.82}

# context switch: different compound, same pIC50
For COc1ccc(CN2C3CC2CN(c2ccc(-c4cc(OCC(C)(C)O)cn5ncc(C#N)c45)cn2)C3)cn1 [LOXO-292, selpercatinib] the compound record lists pIC50 as 7.19

###

Test: 4-week GLP toxicity study in rat
Type: in vivo
Conditions: rat, in vivo, po, Day 28, after the first daily dose
measured_property: Tmax (h)
One number for each entry, in h.

For COCc1ccc(NC(=O)c2c(C#CCN3CCOCC3)n(C3(C)CC3)c3ncnc(N)c23)cc1 the molecule record lists Tmax as 1

###

Experiment: Plasma and brain protein non-binding ratio (fu)
Format: in vitro ADME, mouse
Details: mouse brain; read-out: fu,brain (mouse)
measured_property: fraction unbound
Numbers only.

For COCc1ccc(NC(=O)c2c(C#CCN3CCOCC3)n(C3(C)CC3)c3ncnc(N)c23)cc1 the compound record lists fraction unbound as 0.078

###

Biological target: FGFR3 (Homo sapiens, UniProt P22607)
Sequence (P22607 23-806): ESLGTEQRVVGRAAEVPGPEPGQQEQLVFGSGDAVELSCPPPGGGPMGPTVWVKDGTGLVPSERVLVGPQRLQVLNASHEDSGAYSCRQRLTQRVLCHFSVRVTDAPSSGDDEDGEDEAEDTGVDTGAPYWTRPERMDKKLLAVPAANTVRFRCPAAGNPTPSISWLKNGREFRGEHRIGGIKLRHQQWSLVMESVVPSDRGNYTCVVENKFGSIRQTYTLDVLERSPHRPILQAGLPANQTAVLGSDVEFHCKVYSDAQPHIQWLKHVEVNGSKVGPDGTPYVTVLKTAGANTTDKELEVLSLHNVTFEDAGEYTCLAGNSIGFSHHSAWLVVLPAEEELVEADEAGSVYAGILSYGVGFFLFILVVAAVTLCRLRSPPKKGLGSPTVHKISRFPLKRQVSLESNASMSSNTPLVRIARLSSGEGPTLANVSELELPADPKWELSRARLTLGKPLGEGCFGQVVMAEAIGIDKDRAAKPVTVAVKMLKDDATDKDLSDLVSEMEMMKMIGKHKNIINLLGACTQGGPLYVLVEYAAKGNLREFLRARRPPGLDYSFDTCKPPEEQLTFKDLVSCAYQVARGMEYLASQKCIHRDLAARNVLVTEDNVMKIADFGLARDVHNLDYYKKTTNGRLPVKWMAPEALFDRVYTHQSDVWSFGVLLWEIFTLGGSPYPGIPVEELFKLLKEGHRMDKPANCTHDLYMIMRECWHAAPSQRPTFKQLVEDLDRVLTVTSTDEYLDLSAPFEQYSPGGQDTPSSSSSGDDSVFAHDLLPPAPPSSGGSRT
Test: Kinase inhibition
Type: biochemical
measured_property: pIC50
Answers are plain numbers, as −log10 of the molar value.

For COCc1ccc(NC(=O)c2c(C#CCN3CCOCC3)n(C3(C)CC3)c3ncnc(N)c23)cc1 [HM06/TAS0953] the compound record lists pIC50 as 5.67

###

Experiment: Rat PK after oral and IV administration
Format: in vivo
Details: Han Wistar, plasma, intravenous, 3 mg/kg, glucose 5%
measured_property: half-life
# include the unit after the value

For COCc1ccc(NC(=O)c2c(C#CCN3CCOCC3)n(C3(C)CC3)c3ncnc(N)c23)cc1 the compound record lists half-life as 1.35 h

###

Biological target: DDR1 (Homo sapiens, UniProt Q08345)
Sequence (Q08345 19-913): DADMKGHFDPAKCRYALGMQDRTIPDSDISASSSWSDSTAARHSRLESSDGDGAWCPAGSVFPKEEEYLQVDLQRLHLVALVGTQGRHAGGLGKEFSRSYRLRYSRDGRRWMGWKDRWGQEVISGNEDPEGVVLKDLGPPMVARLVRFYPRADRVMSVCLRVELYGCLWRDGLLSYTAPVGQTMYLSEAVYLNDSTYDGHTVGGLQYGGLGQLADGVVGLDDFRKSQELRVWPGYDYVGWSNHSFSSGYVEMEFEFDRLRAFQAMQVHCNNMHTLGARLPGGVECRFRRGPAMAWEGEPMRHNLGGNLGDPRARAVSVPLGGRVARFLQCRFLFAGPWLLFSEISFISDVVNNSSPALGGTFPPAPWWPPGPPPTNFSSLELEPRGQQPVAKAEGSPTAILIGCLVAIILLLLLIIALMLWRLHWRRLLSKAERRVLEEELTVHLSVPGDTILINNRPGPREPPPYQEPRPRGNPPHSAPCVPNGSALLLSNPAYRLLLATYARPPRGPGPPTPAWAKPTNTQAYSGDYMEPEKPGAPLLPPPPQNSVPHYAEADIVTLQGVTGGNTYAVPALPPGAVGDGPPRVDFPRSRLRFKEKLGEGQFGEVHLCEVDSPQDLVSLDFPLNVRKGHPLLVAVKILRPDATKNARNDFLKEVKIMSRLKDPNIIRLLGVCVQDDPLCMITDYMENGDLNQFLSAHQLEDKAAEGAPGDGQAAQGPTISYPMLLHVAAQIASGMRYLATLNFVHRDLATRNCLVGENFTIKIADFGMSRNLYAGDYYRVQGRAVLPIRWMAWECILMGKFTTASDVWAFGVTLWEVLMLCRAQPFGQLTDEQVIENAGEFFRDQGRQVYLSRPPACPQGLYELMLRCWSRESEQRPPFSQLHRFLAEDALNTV
Experiment: Kinase inhibition
Format: biochemical
Conditions: read-out: IC50 kinase inhibition, DDR1
measured_property: IC50 (nM)
Numbers only, in nM.

{"record_smiles": "COc1ccc(CN2C3CC2CN(c2ccc(-c4cc(OCC(C)(C)O)cn5ncc(C#N)c45)cn2)C3)cn1", "measured_number": 103}

# context switch: different compound, same IC50
For CO[C@]1(C(=O)N[C@@H](C)c2ccc(-n3cc(F)cn3)nc2)CC[C@H](c2nc(C)cc(Nc3cc(C)[nH]n3)n2)CC1 the compound record lists IC50 as 7.1

Data provenance: patent US20240000791A1
